Test system: CDK2 (Homo sapiens, UniProt P24941)
Construct: host or cells: HEK293-CDK2-Hibit
Measurement notes: HiBit Assay Protocol for CDK2 (HIBIT protein quantification, degradation)
Type: cell-based
Experimental conditions: HEK293-CDK2-Hibit cells, compound treatment for 6 hours
Reported property: CDK2 HIBIT Protein Quantification Maximum

# input Requested read-out: CDK2 HIBIT Protein Quantification Maximum. Entry: C[C@H](c1cccc(S(=O)(=O)N2CC[C@H](Nc3ncc4c(n3)N([C@@H]3CCC[C@@H](O)C3)C(=O)C43CC3)[C@H](F)C2)c1)N1CCN(c2ccc3c(N4CCC(=O)NC4=O)nn(C)c3c2)C[C@@H]1C
# output 85%

# input Suppose we examine the molecule CC1CCCC1N1C(=O)C2(CC2)c2cnc(NC3CCN(S(=O)(=O)N4CC5(CCCN(C(=O)CCCCCCCCCc6cccc7c6n(C)c(=O)n7C6CCC(=O)NC6=O)C5)C4)CC3)nc21 (stereo not shown) ; what CDK2 HIBIT Protein Quantification Maximum value has been reported?
# output 37%

# input I would be grateful if you could share the reported CDK2 HIBIT Protein Quantification Maximum for CC1CCCC1N1C(=O)C2(CC2)c2cnc(NC3CCN(S(=O)(=O)N4CC(N(C)C(=O)CCCc5cccc6c5n(C)c(=O)n6C5CCC(=O)NC5=O)C4)CC3)nc21 (stereo not shown) .
# output 57%

# input For the molecule Cn1nc(N2CCC(=O)NC2=O)c2ccc(C3CCN(Cc4cccc(S(=O)(=O)N5CCC(Nc6ncc7c(n6)N(c6cc(F)ccc6Cl)C(=O)C76CC6)CC5)c4)CC3)cc21 , what CDK2 HIBIT Protein Quantification Maximum is on record?
# output 75%

# input Entry CN(CCCN1CCC(c2cccc3c2n(C)c(=O)n3C2CCC(=O)NC2=O)CC1)S(=O)(=O)N1CCC(Nc2ncc3c(n2)N([C@@H]2CCC[C@@H](O)C2)C(=O)C32CC2)CC1 (stereo partly shown) has what CDK2 HIBIT Protein Quantification Maximum?
# output 83%

# input Please report the recorded CDK2 HIBIT Protein Quantification Maximum for CC(C)C1CC(c2ccc3c(N4CCC(=O)NC4=O)nn(C)c3c2)CCN1C(C)c1cccc(S(=O)(=O)N2CC[C@H](Nc3ncc4c(n3)N([C@@H]3CCC[C@@H](O)C3)C(=O)C43CC3)[C@H](F)C2)c1 (stereo partly shown) .
# output 70%

# input Report CDK2 HIBIT Protein Quantification Maximum for C[C@@H](C1CC1)N1C(=O)C2(CC2)c2cnc(NC3CCN(S(=O)(=O)c4cccc(CN5CCC(c6ccc7c(N8CCC(=O)NC8=O)nn(C)c7c6)CC5)c4)CC3)nc21 please.
# output 85%

# input Fill blank: measured CDK2 HIBIT Protein Quantification Maximum of the molecule CC1CCCC1N1C(=O)C2(CC2)c2cnc(NC3CCN(S(=O)(=O)N4CC5(CCN(C(=O)CCCCCc6cccc7c6n(C)c(=O)n7C6CCC(=O)NC6=O)CC5)C4)CC3)nc21 (stereo not shown) is ____.
# output 69%

# input Record request: CDK2 HIBIT Protein Quantification Maximum value, item CC1CCCC1N1C(=O)C2(CC2)c2cnc(NC3CCN(S(=O)(=O)N4CC(N(C)C(=O)CCCCCCCCCc5cccc6c5n(C)c(=O)n6C5CCC(=O)NC5=O)C4)CC3)nc21 (stereo not shown)
# output 62%

# input Fill in the blank: the reported CDK2 HIBIT Protein Quantification Maximum of C[C@@H]1CN(S(=O)(=O)c2cccc(CN3CCC(c4ccc5c(N6CCC(=O)NC6=O)nn(C)c5c4)CC3)c2)CC[C@@H]1Nc1ncc2c(n1)N([C@@H]1CCC[C@@H](O)C1)C(=O)C21CC1 is ____.
# output 57%
